Reported IC50 values for the following compounds.
- assayed_target: Protein farnesyltransferase (Homo sapiens, UniProt P49354+P49356)
- procedure_text: Inhibition of Farnesyltransferase
- Assay type: protein-complex assay

| compound | assayed_target | IC50 |
| --- | --- | --- |
| O=C(Cc1cc[n+]([O-])cc1)N1CCC(C2c3ccc(Cl)cc3CCc3cc(Br)cnc32)CC1 (stereo not drawn) | Protein farnesyltransferase (Homo sapiens, UniProt P49354+P49356) | 40 nM |

Which IC50 is listed for O=C(Cc1cc[n+]([O-])cc1)N1CCC(C2c3ccc(Cl)cc3C=Cc3cc(Br)cnc32)CC1 (stereo not drawn) ?
30 nM

Which IC50 is listed for O=C(Cc1cc[n+]([O-])cc1)N1CCC(C2c3ccc(Cl)cc3C=C(Br)c3cc(Br)cnc32)CC1 (stereo not drawn) ?
40 nM

----------
- procedure_text: maximum concentration was measured when administered through oral route in mice
- Format: ADME, organism-based
- Design: route oral
- run_conditions: mouse, in vivo
Reported Cmax values for the following compounds.
Your answer should be a plain number; it is taken to be in ng/mL.

Illustrative cases are given below, each with its answer.
| compound | Cmax, ng/mL |
| --- | --- |
| O=C(Cc1cc[n+]([O-])cc1)N1CCC(=C2c3ccc(Cl)cc3CCc3cc(Br)cnc32)CC1 | 10000 |
| O=C(Cc1cc[n+]([O-])cc1)N1CCC(C2c3ccc(Cl)cc3CCc3cc(Br)cnc32)CC1 (centres undefined) | 10000 |
| O=C(Cc1cc[n+]([O-])cc1)N1CCC(C2c3ccc(Cl)cc3C=C(Br)c3cc(Br)cnc32)CC1 (centres undefined) | 12000 |

Turning now to a further record.
Which Cmax is listed for O=C(Cc1cc[n+]([O-])cc1)N1CCC(C2c3ccc(Cl)cc3C=Cc3cc(Br)cnc32)CC1 (centres undefined) ?
11000

----------
Reported IC50 values for the following compounds.
- procedure_text: Inhibition of Geranylgeranyl transferase
- Set-up: species or system Homo sapiens

Illustrative cases are given below, each with its answer.
| compound | IC50 |
| --- | --- |
| O=C(Cc1cc[n+]([O-])cc1)N1CCC(=C2c3ccc(Cl)cc3CCc3cc(Br)cnc32)CC1 | 38 µM |
| O=C(Cc1cc[n+]([O-])cc1)N1CCC(C2c3ccc(Cl)cc3C=C(Br)c3cc(Br)cnc32)CC1 (centres undefined) | > 33 µM |

Which IC50 is listed for O=C(Cc1cc[n+]([O-])cc1)N1CCC(C2c3ccc(Cl)cc3C=Cc3cc(Br)cnc32)CC1 (centres undefined) ?
> 38 µM

Which IC50 is listed for O=C(Cc1cc[n+]([O-])cc1)N1CCC(C2c3ccc(Cl)cc3CCc3cc(Br)cnc32)CC1 (centres undefined) ?
> 38 µM

----------
Reported AUC at 24 h values for the following compounds.
- procedure_text: Area under the concentration time curve (AUC) taken for 0-24 hr was measured when administered through oral route in mice
- Type: ADME, organism-based
- Set-up: time < 24 hr, route oral
- run_conditions: mouse, in vivo
Your answer should be a plain number; it is taken to be in ng·h/mL.

Illustrative cases are given below, each with its answer.
| compound | AUC at 24 h, ng·h/mL |
| --- | --- |
| O=C(Cc1cc[n+]([O-])cc1)N1CCC(C2c3ccc(Cl)cc3CCc3cc(Br)cnc32)CC1 (stereo not drawn) | 4100 |
| O=C(Cc1cc[n+]([O-])cc1)N1CCC(C2c3ccc(Cl)cc3C=C(Br)c3cc(Br)cnc32)CC1 (stereo not drawn) | 84900 |

Turning now to a further record.
Which AUC at 24 h is listed for O=C(Cc1cc[n+]([O-])cc1)N1CCC(C2c3ccc(Cl)cc3C=Cc3cc(Br)cnc32)CC1 (stereo not drawn) ?
19000

----------
Reported bioavailability values for the following compounds.
- procedure_text: Oral bioavailability in mouse
- Assay type: ADME, organism-based
- run_conditions: in vivo

Illustrative cases are given below, each with its answer.
| compound | bioavailability |
| --- | --- |
| O=C(Cc1cc[n+]([O-])cc1)N1CCC(C2c3ccc(Cl)cc3C=C(Br)c3cc(Br)cnc32)CC1 (centres undefined) | 100% |
| O=C(Cc1cc[n+]([O-])cc1)N1CCC(C2c3ccc(Cl)cc3C=Cc3cc(Br)cnc32)CC1 (centres undefined) | 100% |
| O=C(Cc1cc[n+]([O-])cc1)N1CCC(=C2c3ccc(Cl)cc3CCc3cc(Br)cnc32)CC1 | 75% |

Which bioavailability is listed for O=C(Cc1cc[n+]([O-])cc1)N1CCC(C2c3ccc(Cl)cc3CCc3cc(Br)cnc32)CC1 (centres undefined) ?
38%

----------
Reported half-life values for the following molecules.
- procedure_text: Biological half life was measured when given iv route in mice
- Format: ADME, organism-based
- run_conditions: mouse, in vivo
Your answer should be a plain number; it is taken to be in min.

| molecule | property_label | reported_value |
| --- | --- | --- |
| O=C(Cc1cc[n+]([O-])cc1)N1CCC(C2c3ccc(Cl)cc3C=Cc3cc(Br)cnc32)CC1 (centres undefined) | half-life | 26.6 |
| O=C(Cc1cc[n+]([O-])cc1)N1CCC(C2c3ccc(Cl)cc3CCc3cc(Br)cnc32)CC1 (centres undefined) | half-life | 46 |
| O=C(Cc1cc[n+]([O-])cc1)N1CCC(C2c3ccc(Cl)cc3C=C(Br)c3cc(Br)cnc32)CC1 (centres undefined) | half-life | 82.2 |

Which half-life is listed for O=C(Cc1cc[n+]([O-])cc1)N1CCC(=C2c3ccc(Cl)cc3CCc3cc(Br)cnc32)CC1 ?
48

----------
- procedure_text: Area under the concentration time curve (AUC) taken for 0-24 hr was measured when administered through iv route in mice
- Type: ADME, organism-based
- Parameters: time < 24 hr, route intravenous
- run_conditions: mouse, in vivo
property_label: AUC at 24 h (ng·h/mL)
Your answer should be a plain number; it is taken to be in ng·h/mL.

Illustrative cases are given below, each with its answer.
| compound | AUC at 24 h / ng·h/mL |
| --- | --- |
| O=C(Cc1cc[n+]([O-])cc1)N1CCC(C2c3ccc(Cl)cc3C=Cc3cc(Br)cnc32)CC1 (stereo not drawn) | 18600 |
| O=C(Cc1cc[n+]([O-])cc1)N1CCC(C2c3ccc(Cl)cc3CCc3cc(Br)cnc32)CC1 (stereo not drawn) | 10600 |

Turning now to a further record.
Which AUC at 24 h is listed for O=C(Cc1cc[n+]([O-])cc1)N1CCC(C2c3ccc(Cl)cc3C=C(Br)c3cc(Br)cnc32)CC1 (stereo not drawn) ?
43700
